Assay Readout: intrinsic clearance, human liver microsomes (mL/min/kg)
Answers are plain numbers, in mL/min/kg.

Illustrative cases are given below, each with its answer.
IN: Can you share its intrinsic clearance, human liver microsomes? I mean this compound: `O=C(CSc1ccccn1)N1CCSc2ccccc21`
OUT: 426

IN: Same read-out for `O=C(Nc1ccc(N2CCOCC2)nc1)N1CCc2sccc2C1` ?
OUT: 8.76

IN: Same read-out for `COc1cccc(NC(=O)[C@H]2CCCN(S(=O)(=O)c3ccc(C)cc3)C2)c1` ?
OUT: 38.1

# next compound below
IN: Can you share its intrinsic clearance, human liver microsomes? I mean this compound: `COCC(=O)N1CCC(Cc2ccccc2-c2cccc(F)c2)(C(=O)NC(C)C)CC1`
OUT: 149
